System: human cytomegalovirus (HCMV)
Assay: microbe, parasite or virus in culture
Format: cell-based, Towne strain
Conditions: comment on Table 1 data
measured-endpoint: antiviral activity against HCMV (in words)

In [3]: df
Out[3]:
                            line_notation  measured
0  NC(=O)c1c(Br)n(CCc2ccccc2)c2ncnc(N)c12      lost

====

Tested on: KB cells
Test: Cytotoxicity: KB cell growth (crystal violet staining)
Format: cell-based
Settings: Homo sapiens; Table 1; cytotoxicity, KB cell growth, 48 hours; read-out: KBgrv
measured-endpoint: IC50 (µM)
Report as a plain number; the unit µM is understood.

Worked cases, answers included:
In [3]: df
Out[3]:
                                   compound  tested_on  measured_endpoint  measured
0         N#Cc1cn(Cc2ccc(F)cc2)c2ncnc(N)c12   KB cells               IC50        60
1  CC(c1ccccc1)n1cc(C#N)c2c(N)ncnc21 (stereo not drawn)   KB cells               IC50        20

Here's the next entry for you.
Please report the recorded IC50 for NC(=O)c1cn(CCc2ccccc2)c2ncnc(N)c12 .
40
